- Measurement description: A CellTox Green Cytotoxicity Assay to monitor cytotoxicity in HepG2 cells - 32 hour (AID 1224883); further: nearly all actives have a fitted effect of over 50% in size
- Stated conditions: CellTox Green fluorescence; series mostly up to 76.8 µM
Inconclusive results are not listed. Active and inactive are the calls of the source. The call rests on the fitted dose curve; in most records, active means well fitted activation curve with a large enough effect in the repeat runs; inconclusive means weak or mixed curves; inactive means flat fitted curve, though single readings scatter.
Log the outcome using a class from active, inactive

### Prompt Recorded test outcome, item `CCCCCCCCCCCCCCC[C@H](O)[C@@H](N)CO`
### Response active

### Prompt Can you look up the reported call for `CO[C@@]12[C@H](COC(N)=O)C3=C(C(=O)C(C)=C(N)C3=O)N1C[C@@H]1N[C@@H]12` for me?
### Response active

### Prompt # outcome recorded in this test, key = `COCCOC`
### Response inactive

### Prompt Kindly provide the recorded test outcome for the following compound: `C(=C\c1ccccc1)/CN1CCN(C(c2ccccc2)c2ccccc2)CC1`
### Response inactive

### Prompt Test call, this compound: `O=C(Nc1ccccc1)Nc1ccccc1`
### Response inactive

### Prompt What classification did `C[Si](NC1CCCCC1)(NC1CCCCC1)NC1CCCCC1` end up with in this test?
### Response inactive

### Prompt Hi team, can someone confirm the assay call for `OC/C(Br)=C(\Br)CO` ?
### Response inactive

### Prompt // return assay outcome for `CCCc1c(OCCCOc2ccc(OCC(=O)O)cc2)ccc(C(C)=O)c1O`
### Response inactive

### Prompt Hi, sorry to bother you, what did the test record for `CC(C)=CC=O` ?
### Response inactive

### Prompt Recorded test call requested for `Fc1c(F)c(F)c(Br)c(F)c1F`
### Response inactive

### Prompt // return assay outcome for CCOc1cc(N)c(Cl)cc1C(=O)NCC1CN(Cc2ccc(F)cc2)CCO1 (stereo not given)
### Response inactive

### Prompt Dear all, I need the recorded test outcome for `CC[C@@H]([C@H](C)O)n1ncn(-c2ccc(N3CCN(c4ccc(OC[C@@H]5CO[C@@](Cn6cncn6)(c6ccc(F)cc6F)C5)cc4)CC3)cc2)c1=O` , thank you.
### Response inactive

### Prompt Check the results log: what was the call for `CCOC(=O)CC(=O)C(=O)OCC` ?
### Response inactive

### Prompt So what was the verdict on Cc1ccccc1N1C(=O)c2cc(S(N)(=O)=O)c(Cl)cc2NC1C (stereo not given) in this test?
### Response inactive

### Prompt Hello, I am checking results. What call was entered for `O=C(O)c1cccnc1C(=O)O` ?
### Response inactive

### Prompt Would you mind telling me which call this test gave CCC(Cc1ccccc1)(C(=O)c1ccc(N2CCOCC2)cc1)N(C)C (stereo not given) ?
### Response inactive

### Prompt Which outcome was entered for the compound CCC(C)(O)CCC=C(C)C (stereo not given) in this test?
### Response inactive

### Prompt Name the outcome recorded for `C[N+](C)(C)CCOC(N)=O` in the assay.
### Response inactive

### Prompt Assay result, entry `CC(C)c1nnc2ccc(-c3ocnc3-c3cc(F)ccc3F)cn12` — outcome?
### Response inactive

### Prompt Which outcome was assigned to `COc1ccccc1N=Nc1c(S(=O)(=O)O)cc2cc(S(=O)(=O)O)cc(NC(C)=O)c2c1O` in this test?
### Response inactive

### Prompt Status in this test for `Nc1nc(Cl)nc2c1ncn2[C@@H]1O[C@H](CO)[C@@H](O)[C@@H]1F` ?
### Response inactive

### Prompt // return assay outcome for `CCCCCCCCSCCO`
### Response active

### Prompt # lookup: test call for `CCOC(=O)N1CCC(n2c(=O)[nH]c3cc(Cl)ccc32)CC1`
### Response inactive

### Prompt Recorded test outcome, item `COc1cc2[nH]c(=O)[nH]c(=O)c2cc1OC`
### Response inactive

### Prompt What did the test return for `Cc1ccc(/C=N/n2c(-c3ccccc3)csc2=S)cc1` ?
### Response inactive
